- experiment: in vitro
- Format: in vitro ADME, human
- particulars: human, microsomes; HLM 0.50 mg/mL, NADPH 1 mM, 1 μM compound, pH 7.4, 37° C., 60 min; read-out: half-life (t1/2)
observation type: half-life (min)
Quick note: give the figure in min, leave out the unit.

>>> assay_value("CCNC(=O)[C@@H]1C=C2c3cccc4[nH]cc(c34)C[C@H]2N(Cc2cccc(O)c2)C1 [Compound 64]")
13.8
>>> assay_value("CCN(CC)C(=O)[C@@H]1C=C2c3cccc4[nH]cc(c34)C[C@H]2N(Cc2cccc(C#N)c2)C1 [Compound 76]")
21.6
>>> assay_value("CCN(CC)C(=O)[C@@H]1C=C2c3cccc4[nH]cc(c34)C[C@H]2N(Cc2ccncc2)C1 [Compound 51]")
40.4

Now for a further molecule.
Reported half-life, molecule CCN(CC)C(=O)[C@@H]1C=C2c3cccc4[nH]cc(c34)C[C@H]2N(Cc2ccccc2)C1 [Compound 82] : ____
13

====

- Test system: C57BL/6 mice
- experiment: Automated mouse head twitch response (HTR) assay (video tracking)
- Assay type: in vivo
- particulars: sc, dose giving most HTR/20 min (35*, 43*, 44*: dose that resulted in the least suppression)
observation type: Most Efficacious Dose for # HTR/20 min

Record excerpt, results attached:
>>> assay_value("CC[C@@H](C)NC(=O)[C@@H]1C=C2c3cccc4[nH]cc(c34)C[C@H]2N(C)C1")
"(0.32) mg/kg, sc"
>>> assay_value("CC[C@@H](C)NC(=O)[C@@H]1C=C2c3cccc4[nH]c(Br)c(c34)C[C@H]2N(C)C1")
"(0.1) mg/kg, sc"
>>> assay_value("CCN(CC)C(=O)[C@@H]1C=C2c3cccc4[nH]c(Br)c(c34)C[C@H]2N(C)C1")
"(0.1) mg/kg, sc"
>>> assay_value("CCN(CC)C(=O)[C@@H]1C=C2c3cccc4[nH]cc(c34)C[C@H]2N(Cc2ccccc2)C1")
"(0.1) mg/kg, sc"
>>> assay_value("C=CCN1C[C@H](C(=O)N[C@H](C)CC)C=C2c3cccc4[nH]cc(c34)C[C@H]21")
"(1) mg/kg, sc"
>>> assay_value("CCN(CC)C(=O)[C@@H]1C=C2c3cccc4[nH]cc(c34)C[C@H]2N(Cc2cccc(OC)c2)C1")
"(3.2) mg/kg, sc"
>>> assay_value("CCC(CC)NC(=O)[C@@H]1C=C2c3cccc4[nH]c(Br)c(c34)C[C@H]2N(C)C1")
"(1) mg/kg, sc"
>>> assay_value("CCN(CC)C(=O)[C@@H]1C=C2c3cccc4[nH]cc(c34)C[C@H]2NC1")
"(3.2) mg/kg, sc"
>>> assay_value("CCCN1C[C@H](C(=O)N(CC)CC)C=C2c3cccc4[nH]cc(c34)C[C@H]21")
"(0.32) mg/kg, sc"

Reported Most Efficacious Dose for # HTR/20 min, compound CCN(C)C(=O)[C@@H]1C=C2c3cccc4[nH]cc(c34)C[C@H]2N(Cc2ccccc2)C1 : ____
(0.32) mg/kg, sc

====

- experiment: in vitro
- Type: in vitro ADME, rat
- particulars: rat, microsomes; RLM (male Sprague-Dawley) 0.50 mg/mL, NADPH 1 mM, 1 μM compound, pH 7.4, 37° C., 60 min; read-out: half-life (t1/2)
observation type: half-life (min)
Quick note: give the figure in min, leave out the unit.

Record excerpt, results attached:
>>> assay_value("CCN(CC)C(=O)[C@@H]1C=C2c3cccc4[nH]cc(c34)C[C@H]2N(Cc2cccnc2)C1 [Compound 55]")
13.4
>>> assay_value("O=C([C@@H]1C=C2c3cccc4[nH]cc(c34)C[C@H]2N(Cc2ccccc2)C1)N1CCCC1 [Compound 84]")
13.7
>>> assay_value("CCN(CC)C(=O)[C@@H]1C=C2c3cccc4[nH]cc(c34)C[C@H]2N(Cc2ccc(C)cc2)C1 [Compound 97]")
2.6

Now for a further molecule.
Reported half-life, molecule CCN(C)C(=O)[C@@H]1C=C2c3cccc4[nH]cc(c34)C[C@H]2N(Cc2cccc(OC)c2)C1 [Compound 92] : ____
5

====

A collection of molecules and their measured microsomal CLint
- experiment: in vitro
- Type: in vitro ADME, rat
- particulars: rat, microsomes; RLM (male Sprague-Dawley) 0.50 mg/mL, NADPH 1 mM, 1 μM compound, pH 7.4, 37° C., 60 min; read-out: Intrinsic clearance (Clint)
Quick note: give the figure in µL/min/mg, leave out the unit.

Record excerpt, results attached:
>>> assay_value("CCN(CC)C(=O)[C@@H]1C=C2c3cccc4[nH]cc(c34)C[C@H]2N(Cc2cccc(O)c2)C1")
214
>>> assay_value("CCNC(=O)[C@@H]1C=C2c3cccc4[nH]cc(c34)C[C@H]2N(Cc2cccc(O)c2)C1")
222

Now for a further molecule.
Reported microsomal CLint, molecule CCN(CC)C(=O)[C@@H]1C=C2c3cccc4[nH]cc(c34)C[C@H]2N(Cc2ccccc2C)C1 : ____
174

====

A collection of compounds and their measured Emax
- target: 5-HT2C receptor (Homo sapiens, UniProt P28335)
- Sequence (P28335 33-458): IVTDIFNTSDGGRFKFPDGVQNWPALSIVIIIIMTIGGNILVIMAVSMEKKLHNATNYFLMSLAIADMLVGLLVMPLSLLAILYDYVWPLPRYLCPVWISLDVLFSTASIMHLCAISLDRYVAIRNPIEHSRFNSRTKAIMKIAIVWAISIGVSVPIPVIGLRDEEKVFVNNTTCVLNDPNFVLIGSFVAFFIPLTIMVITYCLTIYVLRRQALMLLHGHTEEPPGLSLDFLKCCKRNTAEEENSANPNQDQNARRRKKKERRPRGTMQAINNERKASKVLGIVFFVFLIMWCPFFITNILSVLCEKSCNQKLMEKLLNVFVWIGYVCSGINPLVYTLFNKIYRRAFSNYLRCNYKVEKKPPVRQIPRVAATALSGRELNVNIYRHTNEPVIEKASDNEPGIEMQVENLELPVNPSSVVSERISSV
- experiment: cell-based
- particulars: agonist, Ca2+ flux, Eurofins DiscoverX protocol, max dose; read-out: 5-HT2C % Act @ Max Dose
Quick note: give the figure in %, leave out the unit.

Record excerpt, results attached:
>>> assay_value("CC[C@@H](C)NC(=O)[C@@H]1C=C2c3cccc4[nH]c(Br)c(c34)C[C@H]2N(C)C1")
3.13
>>> assay_value("CCC(CC)NC(=O)[C@@H]1C=C2c3cccc4[nH]c(Br)c(c34)C[C@H]2N(C)C1")
40
>>> assay_value("CCCN1C[C@H](C(=O)NC(CC)CC)C=C2c3cccc4[nH]cc(c34)C[C@H]21")
117
>>> assay_value("CCN(CC)C(=O)[C@H]1C=C2c3cccc4[nH]cc(c34)C[C@H]2N(CCCF)C1")
119
>>> assay_value("CCC[C@@H](C)NC(=O)[C@@H]1C=C2c3cccc4[nH]cc(c34)C[C@H]2N(CCC)C1")
115

Reported Emax, compound CCC[C@@H](C)NC(=O)[C@@H]1C=C2c3cccc4[nH]c(Br)c(c34)C[C@H]2N(C)C1 : ____
22.1

Reported Emax, compound CC[C@@H](C)NC(=O)[C@H]1C=C2c3cccc4[nH]cc(c34)C[C@H]2N(CC)C1 : ____
99.4

====

A collection of molecules and their measured metabolised
- experiment: in vitro
- Format: in vitro ADME, human
- particulars: human, microsomes, role: substrate; metabolite 83 formed in HLM, T = 45; read-out: Metabolite Formation (percent formation of metabolite 83)
The reply must contain the numeric value and, after it, the unit.

>>> assay_value("[2H]C([2H])(c1cccc(OC)c1)N1C[C@H](C(=O)N(CC)CC)C=C2c3cccc4[nH]cc(c34)C[C@H]21")
"5.8%"

Now for a further molecule.
Reported metabolised, molecule CCN(CC)C(=O)[C@@H]1C=C2c3cccc4[nH]cc(c34)C[C@H]2N(Cc2cccc(OC)c2)C1 : ____
8.1%

====

- Tested on: C57BL/6 mice
- experiment: Mouse head twitch response (HTR) assay (observer-counted)
- Format: in vivo
- particulars: SC, 20 min, most efficacious dose
observation type: HTR at most efficacious dose (bound)

Record excerpt, results attached:
>>> assay_value("CCC[C@@H](C)NC(=O)[C@@H]1C=C2c3cccc4[nH]cc(c34)C[C@H]2N(CCC)C1")
"> 15 HTR"
>>> assay_value("CC[C@@H](C)NC(=O)[C@@H]1C=C2c3cccc4[nH]cc(c34)C[C@H]2N(C)C1")
"< 15 HTR"

Reported HTR at most efficacious dose (bound), compound CCN(CC)C(=O)[C@@H]1C=C2c3cccc4[nH]cc(c34)C[C@H]2N(CCCF)C1 : ____
> 15 HTR

Reported HTR at most efficacious dose (bound), compound CCCN1C[C@H](C(=O)N(CC)CC)C=C2c3cccc4[nH]cc(c34)C[C@H]21 : ____
> 15 HTR

Reported HTR at most efficacious dose (bound), compound C=CCN1C[C@H](C(=O)N[C@H](C)CC)C=C2c3cccc4[nH]cc(c34)C[C@H]21 : ____
> 15 HTR

====

- target: 5-HT2A receptor (Homo sapiens)
- Sequence (P28223 whole entry): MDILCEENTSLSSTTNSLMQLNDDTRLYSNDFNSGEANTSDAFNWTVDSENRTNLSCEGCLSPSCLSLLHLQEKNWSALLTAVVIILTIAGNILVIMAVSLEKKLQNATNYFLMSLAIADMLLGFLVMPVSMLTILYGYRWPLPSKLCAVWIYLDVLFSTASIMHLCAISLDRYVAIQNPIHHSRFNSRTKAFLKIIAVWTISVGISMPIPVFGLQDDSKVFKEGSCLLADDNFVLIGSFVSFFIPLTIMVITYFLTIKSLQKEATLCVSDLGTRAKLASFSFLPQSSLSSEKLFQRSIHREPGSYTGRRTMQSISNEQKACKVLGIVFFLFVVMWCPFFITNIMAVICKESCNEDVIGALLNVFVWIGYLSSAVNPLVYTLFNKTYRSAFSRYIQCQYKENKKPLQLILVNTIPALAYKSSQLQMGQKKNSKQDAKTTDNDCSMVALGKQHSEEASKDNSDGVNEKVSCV
Each record is given Satisfied if its reported Ki is strictly below 20 nM. Records at or above 20 nM are given Not satisfied.

Answered examples (2):
>>> label("COc1cccc(CN2C[C@@H](C(=O)N3[C@@H](C)C[C@@H]3C)C=C3c4cccc5[nH]cc(c45)C[C@H]32)c1 [Compound 94a]")
"Not satisfied"
>>> label("CCN(CC)C(=O)[C@@H]1C=C2c3cccc4[nH]cc(c34)C[C@H]2N(Cc2ccc(F)cc2)C1")
"Satisfied"

Hello, is Ki of the following compound strictly smaller than 20 nM? CCN(CC)C(=O)[C@@H]1C=C2c3cccc4[nH]cc(c34)C[C@H]2N(Cc2ccc(C)cc2)C1
Not satisfied

Hello, is Ki of the following compound strictly smaller than 20 nM? CCN(CC)C(=O)[C@@H]1C=C2c3cccc4[nH]cc(c34)C[C@H]2N(Cc2cccc(C)c2)C1
Satisfied

Hello, is Ki of the following compound strictly smaller than 20 nM? CCCN(CC)C(=O)[C@H]1C=C2c3cccc4[nH]cc(c34)C[C@H]2N(Cc2cccc(OC)c2)C1 [Compound 93a]
Not satisfied

Hello, is Ki of the following compound strictly smaller than 20 nM? CN(C)C(=O)[C@@H]1C=C2c3cccc4[nH]cc(c34)C[C@H]2N(Cc2ccccc2)C1
Satisfied

Hello, is Ki of the following compound strictly smaller than 20 nM? CCN(CC)C(=O)[C@@H]1C=C2c3cccc4[nH]cc(c34)C[C@H]2N(Cc2ccc3ccccc3c2)C1
Satisfied

Hello, is Ki of the following compound strictly smaller than 20 nM? CCN(CC)C(=O)[C@@H]1C=C2c3cccc4[nH]cc(c34)C[C@H]2N(Cc2ccncc2)C1
Satisfied

Hello, is Ki of the following compound strictly smaller than 20 nM? CCN(CC)C(=O)[C@H]1C=C2c3cccc4[nH]cc(c34)C[C@H]2N(CC2CCCC2)C1 [Compound 90a]
Not satisfied
